Test system: MARIMO
assay.explanation: cell viability relative to vehicle control; higher = less cytotoxic;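 also: after 48 h exposure read by CellTiter-Glo luminescence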
measurement.conditions: 10 µM; SRSF2 genotype: SRSF2 P95H/wt
Where a name gives a salt, the structure may show the parent alone.
property: cell viability (%)
The answer is to be given in %; state only the numeric part.

Indicate the recorded cell viability value for this compound: CC[C@@H]([C@H](C)O)n1ncn(-c2ccc(N3CCN(c4ccc(OC[C@@H]5CO[C@@](Cn6cncn6)(c6ccc(F)cc6F)C5)cc4)CC3)cc2)c1=O [Posaconazole]
55.6

Indicate the recorded cell viability value for this compound: CCCCCCC=CCCCCCCCc1cccc(O)c1C(=O)O [Ginkgolic Acid]
108

Indicate the recorded cell viability value for this compound: COc1c/c(=C2\C=c3ccccc3=N2)[nH]/c1=C\c1[nH]c(C)cc1C [Obatoclax mesylate (GX15-070)]
23.4

Indicate the recorded cell viability value for this compound: `CNCc1ccc(-c2[nH]c3cc(F)cc4c3c2CCNC4=O)cc1`
84.7

Indicate the recorded cell viability value for this compound: Cc1ccccc1CN1C2=NCCN2C(=O)C2=C1CCN(Cc1ccccc1)C2 [TIC10 analogue]
104

Indicate the recorded cell viability value for this compound: `COc1ccc(C(NC(=O)c2cnc(-c3cccnn3)[nH]c2=O)c2ccc(OC)cc2)cc1`
99

Indicate the recorded cell viability value for this compound: COc1c2occc2cc2ccc(=O)oc12 [Methoxsalen (Oxsoralen)]
106

Indicate the recorded cell viability value for this compound: CC(C)c1cc2c(N3CCN(C4=NCC(C)(C)S4)CC3)ncnc2s1 [MI-3 (Menin-MLL Inhibitor)]
75.4

Indicate the recorded cell viability value for this compound: CCc1cc(/C(C)=N/OCc2ccc(C3CCCCC3)c(C(F)(F)F)c2)ccc1CN1CC(C(=O)O)C1 [BAF312 (Siponimod)]
79.3

Indicate the recorded cell viability value for this compound: C/C=C(/C)C(=O)OC(=O)/C(C)=C\C [Angelic anhydride]
101

Indicate the recorded cell viability value for this compound: C[C@@H]1CC[C@@]2(NC1)O[C@H]1C[C@H]3[C@@H]4CC=C5C[C@@H](O[C@@H]6O[C@H](CO)[C@@H](O[C@@H]7O[C@@H](C)[C@H](O)[C@@H](O)[C@H]7O)[C@H](O)[C@H]6O[C@@H]6O[C@@H](C)[C@H](O)[C@@H](O)[C@H]6O)CC[C@]5(C)[C@H]4CC[C@]3(C)[C@H]1[C@@H]2C [Solamargine]
51.5

Indicate the recorded cell viability value for this compound: `Cc1ccc(Nc2ncc3c(n2)N(C)C(=O)N(c2cc(NC(=O)c4cccc(C(F)(F)F)c4)ccc2C)C3)cn1`
38.1

* * *

Tested on: OCI-AML2
assay.explanation: cell viability relative to vehicle control; higher = less cytotoxic
measurement.conditions: 10 µM; SRSF2 genotype: P95H/wt
property: cell viability (%)
The answer is to be given in %; state only the numeric part.

Given `CN1CC(=O)N2[C@H](c3ccc4c(c3)OCO4)c3[nH]c4ccccc4c3C[C@@H]2C1=O` , report its cell viability on OCI-AML2.
103

Given `O=C(C=CC=Cc1ccccc1)CCc1ccccc1` , report its cell viability on OCI-AML2.
76.6

Given `N#Cc1cnc(Nc2cc(NC[C@H]3CNCCO3)c(C(F)(F)F)cn2)cn1` , report its cell viability on OCI-AML2.
14.5

Given `Cc1cccc(C)c1OCC(=O)N[C@@H](Cc1ccccc1)[C@@H](O)C[C@H](Cc1ccccc1)NC(=O)[C@H](C(C)C)N1CCCNC1=O` , report its cell viability on OCI-AML2.
97.3

Given `CC(C)[C@H](O)C(=O)N[C@@H](C)C(=O)N[C@@H]1C(=O)N(C)CCc2ccccc21` , report its cell viability on OCI-AML2.
101

Given CN(C)CC(c1ccc(O)cc1)C1(O)CCCCC1 (stereo unspecified) [Desvenlafaxine Succinate] , report its cell viability on OCI-AML2.
100

* * *

Test system: OCI-AML2
assay.explanation: cell viability relative to vehicle control; higher = less cytotoxic
measurement.conditions: 10 µM; SRSF2 genotype: P95H/wt
Assign cell viability to each entry below.
The answer is to be given in %; state only the numeric part.

Indicate the recorded cell viability value for this molecule: `Clc1ccc(C2(c3ccc(-c4cn[nH]c4)cc3)CCNCC2)cc1`
21.6

Indicate the recorded cell viability value for this molecule: CC(=CCNc1ncnc2c1ncn2C1OC(CO)C(O)C1O)CO (stereo not drawn) [trans-Zeatin-riboside]
116

Indicate the recorded cell viability value for this molecule: CCn1cc(C(=O)O)c(=O)c2cc(F)c(N3CCNCC3)cc21 [Norfloxacin (Norxacin)]
97.4

* * *

System: MARIMO
assay.explanation: cell viability relative to vehicle control; higher = less cytotoxic
measurement.conditions: 10 µM; SRSF2 genotype: SRSF2 wt/wt
Counter-ions that a name gives are not always drawn.
# rule met = cell viability below 80% (exclusive); rule not met = cell viability at/above 80%

Given the entry COc1cc(C(C)=O)ccc1O [Apocynin (Acetovanillone)] , would its reported cell viability be below 80%?
rule not met

Given the entry COC(=O)c1cc(O)c(O)c(O)c1 [Methyl gallate] , would its reported cell viability be below 80%?
rule not met

Given the entry `C=CC(=O)N1CC(N2CCN(C(=O)CNc3cc(C4(C)CC4)c(Cl)cc3O)CC2)C1` , would its reported cell viability be below 80%?
rule not met

Given the entry Cc1cc(Nc2cc(Cl)nc(Oc3ccc([N+](=O)[O-])cc3)n2)n[nH]1 [Autophinib] , would its reported cell viability be below 80%?
rule met

Given the entry O=C(NC(NC(=S)Nc1ccc(F)c([N+](=O)[O-])c1)C(Cl)(Cl)Cl)C(c1ccccc1)c1ccccc1 (stereo not drawn) , would its reported cell viability be below 80%?
rule met

Given the entry C[C@H](NCc1ccc(OCc2cccc(F)c2)cc1)C(N)=O [Safinamide] , would its reported cell viability be below 80%?
rule not met

Given the entry `O=C(NS(=O)(=O)c1ccc(Br)s1)c1ccc(Cl)cc1Cl` , would its reported cell viability be below 80%?
rule not met

Given the entry CCOC(=O)[C@H](CCc1ccccc1)N[C@@H](C)C(=O)N1C(=O)N(C)C[C@H]1C(=O)O [Imidapril HCl] , would its reported cell viability be below 80%?
rule not met

Given the entry c1ccc2occc2c1 [2,3-Benzofuran] , would its reported cell viability be below 80%?
rule not met

Given the entry C/C=C(/C)C(=O)O[C@@H]1[C@H](OC(C)=O)c2c(ccc3ccc(=O)oc23)OC1(C)C [Praeruptorin A] , would its reported cell viability be below 80%?
rule not met

Given the entry `CCOC(=O)c1ccc(NC(=O)O[C@H]2[C@H](OC(=O)Nc3ccc4c(c3)OCO4)[C@@H](OC(=O)Nc3ccc4c(c3)OCO4)[C@@H](OC)O[C@@H]2CO)cc1` , would its reported cell viability be below 80%?
rule not met

Given the entry CCO[C@@H]1OC(=O)C[C@@H]1NC(=O)[C@@H]1CCCN1C(=O)[C@@H](NC(=O)c1ccc(N)c(Cl)c1)C(C)(C)C [Belnacasan (VX-765)] , would its reported cell viability be below 80%?
rule not met

Given the entry `O=C1NC(=O)/C(=C/c2ccc3nccc(-c4ccncc4)c3c2)S1` , would its reported cell viability be below 80%?
rule met

Given the entry C[C@@H]1CC[C@@]2(OC1)O[C@H]1C[C@H]3[C@@H]4CC=C5C[C@@H](O)C[C@@H](O)[C@]5(C)[C@H]4CC[C@]3(C)[C@H]1[C@@H]2C [Ruscogenin] , would its reported cell viability be below 80%?
rule not met

Given the entry Cc1nc(Nc2ncc(C(=O)Nc3c(C)cccc3Cl)s2)cc(N2CCN(CCO)CC2)n1 [Dasatinib Monohydrate] , would its reported cell viability be below 80%?
rule met

Given the entry Cc1c(CN2CCN(C(=O)[C@H](C)O)CC2)sc2c(N3CCOCC3)nc(-c3cnc(N)nc3)nc12 [Apitolisib (GDC-0980, RG7422)] , would its reported cell viability be below 80%?
rule met

Given the entry `CCn1c(=O)c(-c2ccc(-c3cncs3)cc2Cl)cc2cnc(Nc3ccc(N4CCN(C)CC4)cc3)nc21` , would its reported cell viability be below 80%?
rule met

Given the entry COc1ccnc(C[S+]([O-])c2nc3cc(OC(F)F)ccc3[nH]2)c1OC (stereo not drawn) [Pantoprazole sodium] , would its reported cell viability be below 80%?
rule not met

* * *

System: MARIMO
assay.explanation: cell viability relative to vehicle control; higher = less cytotoxic
measurement.conditions: 10 µM; SRSF2 genotype: SRSF2 wt/wt
Where a name gives a salt, the structure may show the parent alone.
Assign cell viability to each entry below.
The answer is to be given in %; state only the numeric part.

Indicate the recorded cell viability value for this compound: `COc1ccc2cc3[n+](cc2c1O)CCc1cc2c(cc1-3)OCO2`
98.3

Indicate the recorded cell viability value for this compound: COc1cc2c(cc1OC)-c1cc3ccc4c(c3c[n+]1CC2)OCO4 [Epiberberine]
98.2

Indicate the recorded cell viability value for this compound: `C[C@@H]1O[C@@H]1P(=O)(O)O`
114

Indicate the recorded cell viability value for this compound: `CN(C)/N=N/c1[nH]cnc1C(N)=O`
107

Indicate the recorded cell viability value for this compound: `Cc1nc2c(O)cccc2c(=O)[nH]1`
93.8

Indicate the recorded cell viability value for this compound: CC#CC(=O)N1CC[C@@H](n2c(=O)n(-c3ccc(Oc4ccccc4)cc3)c3c(N)ncnc32)C1 [ONO-4059 (GS-4059) hydrochloride]
107

Indicate the recorded cell viability value for this compound: `O=C(Cc1cccc(OC(F)(F)F)c1)Nc1ccc(CCCCc2nnc(NC(=O)Cc3ccccn3)s2)nn1`
21.2

Indicate the recorded cell viability value for this compound: CNC1CCCN(c2c(F)cc3c(=O)c(C(=O)O)cn(C4CC4)c3c2OC)C1 (configuration not stated)
105

Indicate the recorded cell viability value for this compound: `CC(=O)Oc1ccc(C(=C2CCCCC2)c2ccc(OC(C)=O)cc2)cc1`
95.8

Indicate the recorded cell viability value for this compound: CCn1c2ccccc2c2cc(CNCc3ccccc3OC)ccc21 [HLCL-61 hydrochloride]
84.8

Indicate the recorded cell viability value for this compound: `C1N2CN3CN1CN(C2)C3`
108

Indicate the recorded cell viability value for this compound: CCCCNc1ncc(C(=O)NCc2ccc(-n3ccnc3)cc2)c(NC2CCC(O)CC2)n1 (configuration not stated)
83.9
